Tested on: S. aureus
Test: MIC towards S. aureus in combination with the peptide betatide
Assay type: cell-based, Staphylococcus aureus
Conditions: betatide 8 mg/L (half its MIC)
What Combination with Betatide MIC was measured for each of the following?
Give bare numbers, in µg/mL.

molecule	value.unit	val
C[C@@H](Nc1ncnc2[nH]c(-c3ccc(O)cc3)cc12)c1ccc(Br)cc1	µg/mL	1
C[C@@H](Nc1ncnc2[nH]c(-c3ccc(O)cc3)cc12)c1ccccc1 [Compound 1, reference compound]	µg/mL	8
C[C@@H](Nc1ncnc2sc(-c3ccc(O)cc3)cc12)c1ccc(Br)cc1	µg/mL	4
Cc1ccc([C@@H](C)Nc2ncnc3[nH]c(-c4ccc(O)cc4)cc23)cc1	µg/mL	8

Kindly give each listed record's Combination with Betatide MIC.
1. C[C@@H](Nc1ncnc2[nH]c(-c3ccc(O)cc3)cc12)c1cccc(Br)c1
2. C[C@@H](Nc1ncnc2[nH]c(-c3ccc(O)cc3)cc12)c1ccc(Cl)cc1
3. C[C@@H](Nc1ncnc2[nH]c(-c3ccc(O)cc3)cc12)c1ccc(I)cc1
4. C[C@@H](Nc1ncnc2[nH]c(-c3cccc(O)c3)cc12)c1ccc(Br)cc1

Result:
1. 4
2. 4
3. 2
4. 2

====

What inhibition at 0.1 µM was measured for each of the following?
Molecular target: human EGFR (Homo sapiens)
Construct: purchased Invitrogen (ThermoFisher), assay service
Assay: Enzymatic EGFR (ErbB1) inhibition, Z'-LYTE
Type: biochemical
Conditions: 100 nM compound, ATP equal to KM
Give bare numbers, in %.

Kindly give each listed record's inhibition at 0.1 µM.
1. C[C@@H](Nc1ncnc2[nH]c(-c3ccc(N)cc3)cc12)c1ccc(Br)cc1 [Compound 15]
2. C[C@@H](Nc1ncnc2[nH]c(-c3ccc(O)cc3)cc12)c1cccc(Br)c1 [Compound 7]
3. C[C@@H](Nc1ncnc2[nH]c(-c3ccc(S(N)(=O)=O)cc3)cc12)c1ccc(Br)cc1 [Compound 17]
4. C[C@@H](Nc1ncnc2[nH]c(-c3ccc(O)cc3)cc12)c1ccc(F)cc1 [Compound 3]
5. C[C@@H](Nc1ncnc2[nH]c(-c3ccc(F)cc3)cc12)c1ccc(Br)cc1 [Compound 13]
6. C[C@@H](Nc1ncnc2sc(-c3ccc(O)cc3)cc12)c1ccc(Br)cc1 [Compound 21]

Result:
[90, 89, 85, 92, 58, 5]

====

property.measured: melting point

compound	val
C[C@@H](Nc1ncnc2sc(-c3ccc(O)cc3)cc12)c1ccc(Br)cc1 (hydrate or solvate) [Compound 21]	144.1 to 145.4 °C

Kindly give each listed record's melting point.
1. COc1ccc(-c2cc3c(N[C@H](C)c4ccc(Br)cc4)ncnc3s2)cc1 [Compound 20]
2. C[C@@H](Nc1ncnc2[nH]c(-c3ccc(O)cc3)cc12)c1ccc(I)cc1 (hydrate or solvate) [Compound 6]

Result:
1: 107.1 to 109.4 °C; 2: 254.9 to 256 °C (dec.)

Quick note, melting point for C[C@@H](Nc1ncnc2[nH]c(-c3ccc(O)cc3)cc12)c1ccc(Cl)cc1 [Compound 4] landed at 216.6 °C (dec.)

====

Molecular target: human EGFR (Homo sapiens, UniProt P00533)
Sequence (P00533 25-1210): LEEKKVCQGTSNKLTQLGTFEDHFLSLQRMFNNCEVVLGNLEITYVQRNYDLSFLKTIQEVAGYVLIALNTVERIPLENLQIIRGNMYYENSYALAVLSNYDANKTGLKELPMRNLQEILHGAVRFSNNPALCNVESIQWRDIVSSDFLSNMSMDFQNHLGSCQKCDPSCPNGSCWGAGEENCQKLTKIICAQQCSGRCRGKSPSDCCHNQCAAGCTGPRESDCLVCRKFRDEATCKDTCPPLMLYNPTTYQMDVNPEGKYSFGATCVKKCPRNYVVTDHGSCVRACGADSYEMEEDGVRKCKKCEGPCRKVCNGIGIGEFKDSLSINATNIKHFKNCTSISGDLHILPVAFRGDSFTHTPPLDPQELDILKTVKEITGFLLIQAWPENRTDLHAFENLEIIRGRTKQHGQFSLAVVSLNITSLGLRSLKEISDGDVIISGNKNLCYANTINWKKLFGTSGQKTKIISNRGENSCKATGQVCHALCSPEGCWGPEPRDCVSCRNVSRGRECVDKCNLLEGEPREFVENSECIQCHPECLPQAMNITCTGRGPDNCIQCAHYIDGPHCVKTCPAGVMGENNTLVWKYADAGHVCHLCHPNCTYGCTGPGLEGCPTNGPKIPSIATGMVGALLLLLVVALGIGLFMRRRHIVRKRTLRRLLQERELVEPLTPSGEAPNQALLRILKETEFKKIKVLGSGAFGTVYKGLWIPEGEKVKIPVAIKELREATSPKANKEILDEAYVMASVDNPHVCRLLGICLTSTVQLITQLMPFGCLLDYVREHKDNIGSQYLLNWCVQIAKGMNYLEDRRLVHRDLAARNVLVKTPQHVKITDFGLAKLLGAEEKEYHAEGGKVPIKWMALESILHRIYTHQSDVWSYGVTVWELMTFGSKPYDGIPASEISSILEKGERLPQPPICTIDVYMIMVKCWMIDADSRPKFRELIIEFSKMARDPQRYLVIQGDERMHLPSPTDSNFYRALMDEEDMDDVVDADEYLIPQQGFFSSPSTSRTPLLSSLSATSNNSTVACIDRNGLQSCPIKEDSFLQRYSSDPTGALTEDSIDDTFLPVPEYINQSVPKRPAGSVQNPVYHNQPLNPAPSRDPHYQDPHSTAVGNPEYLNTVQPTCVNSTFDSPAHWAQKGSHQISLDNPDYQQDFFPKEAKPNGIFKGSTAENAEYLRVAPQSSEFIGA
property.measured: pIC50
Numbers only, as −log10 of the molar value.

The reported pIC50 value, human EGFR (Homo sapiens, UniProt P00533), for `C[C@@H](Nc1ncnc2[nH]c(-c3ccc(O)cc3)cc12)c1ccc(Br)cc1` reads 7.60

====

Molecular target: human EGFR (Homo sapiens, UniProt P00533)
Construct: purchased Invitrogen (ThermoFisher), assay service
Assay: Enzymatic EGFR (ErbB1) inhibition, Z'-LYTE
Format: biochemical
Details: 100 nM compound, ATP equal to KM
Output: class label from inhibition at 0.1 µM. Mapping: group A = under 40%, group B = from 40% up to 80%, group C = 80% and over

Examples with answers:
compound	discrete.label
C[C@@H](Nc1ncnc2[nH]c(-c3ccccc3)cc12)c1ccc(Br)cc1	group B
C[C@@H](Nc1ncnc2[nH]c(-c3ccc(O)cc3)cc12)c1ccc(Cl)cc1	group C
C[C@@H](Nc1ncnc2[nH]c(-c3cccc(O)c3)cc12)c1ccc(Br)cc1	group B
COC(=O)c1ccc(-c2cc3c(N[C@H](C)c4ccc(Br)cc4)ncnc3[nH]2)cc1	group B
Oc1ccc(-c2cc3c(NCc4ccc(Br)cc4)ncnc3[nH]2)cc1	group B
COc1ccc(-c2cc3c(N[C@H](C)c4ccc(Br)cc4)ncnc3s2)cc1	group A
C[C@@H](Nc1ncnc2[nH]c(-c3ccc([N+](=O)[O-])cc3)cc12)c1ccc(Br)cc1	group A
C[C@@H](Nc1ncnc2[nH]c(-c3ccc(O)cc3)cc12)c1ccc(I)cc1	group B

Ask: Hi, small favor: classify `Cc1ccc([C@@H](C)Nc2ncnc3[nH]c(-c4ccc(O)cc4)cc23)cc1` by its inhibition at 0.1 µM when you get a moment.
Result: group C

Ask: Hi, small favor: classify C[C@@H](Nc1ncnc2[nH]c(-c3ccc(O)cc3)cc12)c1ccccc1 [Compound 1, reference compound] by its inhibition at 0.1 µM when you get a moment.
Result: group C
